All values here come from paper doi:10.1101/2025.04.14.648764.

# TARGET OR TEST SYSTEM: the molecule itself
# TEST: dynamic light scattering
ATTRIBUTE MEASURED: stoichiometry N
# output: bare number, no unit

AGT LM-p.I244T p.S81D (enzyme, human) MASHKLLVTPLKALLKPLSIPNQLLLGPGPSNLPPRIMAAGGLQMIGSMSKDMYQIMDEIKEGIQYVFQTRNPLTLVISGDGHCALEAALVNVLEPGDSFLVGANGIWGQRAVDIGERIGARVHPMTKDPGGHYTLQEVEEGLAQHKPVLLFLTHGESSTGVLQPLDGFGELCHRYKCLLLVDSVASLGGTPLYMDRQGIDILYSGSQKALNAPPGTSLISFSDKAKKKMYSRKTKPFSFYLDTKWLANFWGCDDQPRMYHHTIPVISLYSLRESLALIAEQGLENSWRQHREAAAYLHGRLQALGLQLFVKDPALRLPTVTTVAVPAGYDWRDIVSYVMDHFDIEIMGGLGPSTGKVLRIGLLGCNATRENVDRVTEALRAALQHCPKKKL yielded stoichiometry N of 2

// stoichiometry N value for AGT WT p.S81D (enzyme, human) MASHKLLVTPPKALLKPLSIPNQLLLGPGPSNLPPRIMAAGGLQMIGSMSKDMYQIMDEIKEGIQYVFQTRNPLTLVISGDGHCALEAALVNVLEPGDSFLVGANGIWGQRAVDIGERIGARVHPMTKDPGGHYTLQEVEEGLAQHKPVLLFLTHGESSTGVLQPLDGFGELCHRYKCLLLVDSVASLGGTPLYMDRQGIDILYSGSQKALNAPPGTSLISFSDKAKKKMYSRKTKPFSFYLDIKWLANFWGCDDQPRMYHHTIPVISLYSLRESLALIAEQGLENSWRQHREAAAYLHGRLQALGLQLFVKDPALRLPTVTTVAVPAGYDWRDIVSYVIDHFDIEIMGGLGPSTGKVLRIGLLGCNATRENVDRVTEALRAALQHCPKKKL : 2
